Biological target: HIV Reverse Transcriptase (Human immunodeficiency virus type 1 group M subtype B, UniProt P04585)
Construct: purchased Amersham Life Sciences TRK 1022
Assay: in vitro inhibition of HIV reverse transcriptase in presence and absence of ATP or other nucleoside phosphates (kit TRK 1022)
Format: biochemical
Details: in the presence of ATP (Medium A in master mix containing 320 mM ATP)
Quantity: pIC50
One number for each entry, as −log10 of the molar value.

Retrieve pIC50 measured for `Cn1c2ccccc2c2c1cc(C#N)c(=O)n2-c1ccc([N+](=O)[O-])cc1` and print it.
7.80

* * *

Target: HIV Reverse Transcriptase (Human immunodeficiency virus type 1 group M subtype B)
Construct: purchased Amersham Life Sciences TRK 1022
Experiment: in vitro inhibition of HIV reverse transcriptase in presence and absence of ATP or other nucleoside phosphates (kit TRK 1022)
Type: biochemical
Conditions: in the absence of ATP
Quantity: IC50
Record the result as number plus unit.

Retrieve IC50 measured for Cn1c2ccccc2c2c1cc(C#N)c(=O)n2-c1ccc([N+](=O)[O-])cc1 [Compound 1] and print it.
300 nM

* * *

Target: HIV Reverse Transcriptase (Human immunodeficiency virus type 1 group M subtype B)
Construct: purchased Amersham Life Sciences TRK 1022
Experiment: in vitro inhibition of HIV reverse transcriptase in presence and absence of ATP or other nucleoside phosphates (kit TRK 1022)
Assay type: biochemical
Conditions: in the presence of ADP
Quantity: pIC50
Give bare numbers, as −log10 of the molar value.

Provide pIC50, system HIV Reverse Transcriptase (Human immunodeficiency virus type 1 group M subtype B), entry Cn1c2ccccc2c2c1cc(C#N)c(=O)n2-c1ccc([N+](=O)[O-])cc1 [Compound 1]
7.64

* * *

Molecular target: HIV Reverse Transcriptase (Human immunodeficiency virus type 1 group M subtype B)
Construct: purchased Amersham Life Sciences TRK 1022
Test: in vitro inhibition of HIV reverse transcriptase in presence and absence of ATP or other nucleoside phosphates (kit TRK 1022)
Format: biochemical
Details: in the presence of CTP
Quantity: IC50 (nM)
One number for each entry, in nM.

Provide IC50, system HIV Reverse Transcriptase (Human immunodeficiency virus type 1 group M subtype B), entry `Cn1c2ccccc2c2c1cc(C#N)c(=O)n2-c1ccc([N+](=O)[O-])cc1`
114

* * *

Biological target: HIV Reverse Transcriptase (Human immunodeficiency virus type 1 group M subtype B, UniProt P04585)
Construct: purchased Amersham Life Sciences TRK 1022
Experiment: in vitro inhibition of HIV reverse transcriptase in presence and absence of ATP or other nucleoside phosphates (kit TRK 1022)
Assay type: biochemical
Conditions: in the presence of AMP
Quantity: pIC50
One number for each entry, as −log10 of the molar value.

Retrieve pIC50 measured for `Cn1c2ccccc2c2c1cc(C#N)c(=O)n2-c1ccc([N+](=O)[O-])cc1` and print it.
7.75

* * *

Biological target: HIV Reverse Transcriptase (Human immunodeficiency virus type 1 group M subtype B, UniProt P04585)
Construct: purchased Amersham Life Sciences TRK 1022
Experiment: in vitro inhibition of HIV reverse transcriptase in presence and absence of ATP or other nucleoside phosphates (kit TRK 1022)
Format: biochemical
Details: in the presence of ATPbgNH
Method: The assay was run using kit TRK 1022™ (Amersham Life Sciences) according to the manufacturer's instructions with slight modifications. […] In each experiment three conditions were tested: wells filled with 25 μl of the above compound solutions, wells filled with 25 μl 2% DMSO in Medium A (RO) and wells filled with 100 μl Stopsolution and 25 μl DMSO in Medium A (RI). […] The radioactivity was counted in a TopCount™. […]
Quantity: pIC50
Answers are plain numbers, as −log10 of the molar value.

Retrieve pIC50 measured for `Cn1c2ccccc2c2c1cc(C#N)c(=O)n2-c1ccc([N+](=O)[O-])cc1` and print it.
7.61
